This listing pairs molecules with measured Plant response rating, Sedge, Umbrella (Flood).
# System: sedge, umbrella
# measurement-description: Test D flooded paddy test
# Assay type: in vivo, Cyperus difformis
# applied-conditions: 250 g ai/ha, applied to paddy water, visual rating after 13 to 14 days, scale 0 to 100 (0 no effect, 100 complete control)
Give your answer as a number; write no unit.

See these solved cases before continuing.
>>> data_value("COC[C@H]1CN(C(=O)c2cc(-n3cnc(C(C)C)n3)cc3c2OCCO3)c2cccc(Cl)c2O1 [Compound 395]")
0
>>> data_value("CC(C)c1ncn(-c2cc(C(=O)N3CC(C(F)(F)F)Oc4c(Cl)cccc43)ccn2)n1 (single isomer, unassigned) [Compound 330]")
0
>>> data_value("Cc1cccc2c1O[C@@H](C)CN2C(=O)c1cccc(-n2cnc(C(C)(C)O)n2)c1 [Compound 278]")
100
>>> data_value("COc1ccc(-n2cnc(C(C)(C)O)n2)cc1C(=O)N1C[C@H](C)Oc2c(Cl)cccc21 [Compound 254]")
98
>>> data_value("Cc1cccc2c1O[C@@H](C)CN2C(=O)c1cccc(-n2cnc(C#C[Si](C)(C)C)n2)c1 [Compound 284]")
0
>>> data_value("CCOC[C@H]1CN(C(=O)c2cc(-n3cnc(CC)n3)ccc2C)c2cccc(Cl)c2O1 [Compound 412]")
90
>>> data_value("Cc1ccc(-n2cnc(C(C)(F)F)n2)cc1C(=O)N1C[C@H](C)Oc2c(Cl)cccc21 [Compound 248]")
0
>>> data_value("Cc1cccc2c1OC(C)CN2C(=O)c1cccc(-n2ncnc2C2CC2)c1 (racemic) [Compound 196]")
0

Give Plant response rating, Sedge, Umbrella (Flood) (sedge, umbrella) of the following molecule: CCOCc1ncn(-c2ccc(C)c(C(=O)N3C[C@H](C)Oc4c(Cl)cccc43)c2)n1 [Compound 294]
0

And for Cc1ncc(-c2cccc(C(=O)N3C[C@H](C)Oc4c(Cl)cccc43)c2)o1 [Compound 352] ?
0

And for Cc1cccc2c1O[C@@H](C)CN2C(=O)c1cccc(-n2nccn2)c1 [Compound 282] ?
0

And for CC(C)n1cnc(-c2cccc(C(=O)N3C[C@H](C)Oc4c(Cl)cccc43)c2)n1 [Compound 172] ?
0

And for COC[C@H]1CN(C(=O)c2cccc(-n3cnc(C(C)(C)O)n3)c2)c2cccc(Cl)c2O1 [Compound 253] ?
70

And for CCc1c(C)cc(-n2cnc(C(C)C)n2)cc1C(=O)N1C[C@H](C)Oc2c(Cl)cccc21 [Compound 179] ?
0
